In this section we review reported melting point values for a set of compounds.

Request: I would be grateful if you could share the reported melting point for COC(=O)c1ccc2[nH]cc(C(C)=O)c2c1 .
Response: 235 to 236 °C

New cases:
Request: I would be grateful if you could share the reported melting point for CCc1cn(C2CC(F)C(CO)O2)c(=O)[nH]c1=S (stereo not drawn) .
Response: 139 to 140 °C

Request: I would be grateful if you could share the reported melting point for Cc1cc(=O)c(Oc2ccc(F)cc2C)c(-c2ccc(S(C)(=O)=O)cc2)o1 .
Response: 146 °C

Request: I would be grateful if you could share the reported melting point for NC(=NO)c1cc2c(Oc3ccc(Cl)cc3)cncc2s1 .
Response: 194 to 196 °C

Request: I would be grateful if you could share the reported melting point for Nc1ccc(-c2noc(-c3cnn4c(C(F)(F)F)cc(-c5ccc(Cl)cc5)nc34)n2)cn1 .
Response: 253 °C

Request: I would be grateful if you could share the reported melting point for Cc1cc(C)nc(S(=O)(=O)c2ccccc2)c1 .
Response: 106 to 107 °C

Request: I would be grateful if you could share the reported melting point for COC(CCCCC(N)=O)OC .
Response: 57 °C

Request: I would be grateful if you could share the reported melting point for COc1cc(C)nc2ccc(NC(=O)C=Cc3ccccc3Cl)cc12 .
Response: 228 to 229 °C

Request: I would be grateful if you could share the reported melting point for Cn1nc(-c2ccccc2)nc1-c1ccccc1CBr .
Response: 83 to 85 °C

Request: I would be grateful if you could share the reported melting point for Cc1cc(C)c2nc(NCC3COC(C)(C)O3)n(Cc3nc(C)ccc3O)c2c1 (stereo not drawn) .
Response: 225 °C

----------
reported-property: melting point

Worked set:
Request: I would be grateful if you could share the reported melting point for CCN1CC(SCC2CC2)(C(F)(F)F)c2cc(Cl)ccc2NC1=O (stereo not given) .
Response: 152 to 156 °C

Request: I would be grateful if you could share the reported melting point for COC(=O)c1cc(-c2ccccn2)n(-c2ccc(Cl)nn2)n1 .
Response: 164 to 165 °C

New cases:
Request: I would be grateful if you could share the reported melting point for COc1cccc2c1CCC(C#N)=C2 .
Response: 47 to 49 °C

Request: I would be grateful if you could share the reported melting point for c1ccc(CC(Cc2ccccc2)(c2nnn[nH]2)c2nnn[nH]2)cc1 .
Response: 228 to 230 °C

Request: I would be grateful if you could share the reported melting point for COc1ccc2ccc(N3C(=O)c4ccccc4C3OCC(=O)CC(C)C)nc2n1 (stereo not given) .
Response: 120 °C

----------
In this section we review reported melting point values for a set of compounds.

Request: I would be grateful if you could share the reported melting point for Cn1c(=N)c(C(=O)NCCN2CCOCC2)c(O)c2cc(Cl)ccc21 .
Response: 211 to 213 °C

Request: I would be grateful if you could share the reported melting point for Cc1nc(C(=O)NC23CC4CC(CC(C4)C2)C3)cn1-c1ccccc1 .
Response: 207 to 210 °C

Request: I would be grateful if you could share the reported melting point for C=CCc1cn(C(c2ccccc2)(c2ccccc2)c2ccccc2)c(F)n1 .
Response: 136 to 138 °C

Request: I would be grateful if you could share the reported melting point for CN(N)c1ncnc2c1cnn2C .
Response: 213 to 215 °C
